Taken from patent US20230265151A1.

# TARGET: human GLP-1 receptor (human, UniProt P43220 24-463)
# PROCEDURE DETAILS: cell-based or functional assay
*1 amine or outer side, *2 acyl side, *3 side chain or, on linkers, in order; H or OH if unused. Where no end group is shown, it is not given here. Side-chain parts run from the residue outwards. [ ]: non-standard residue; d: D form. The star is where a group is joined. αMePhe(2-F) = C[C@](N)(Cc1ccccc1F)C(=O)O; γGlu = O=C(O)[C@H](CCC(=O)[*:2])N[*:1]; C14 diacid = O=C(O)CCCCCCCCCCCCC(=O)*; αMeY = C[C@](N)(Cc1ccc(O)cc1)C(=O)O; αMeF = C[C@](N)(Cc1ccccc1)C(=O)O; αMeL = CC(C)C[C@](C)(N)C(=O)O; Orn = NCCC[C@H](N)C(=O)O; AEEA = NCCOCCOCC(=O)O; Aib = CC(C)(N)C(=O)O
PROPERTY MEASURED: EC50, cAMP (nM)
Enter your answer as a number in nM; do not include the unit.

The following binders have reported results that may help.
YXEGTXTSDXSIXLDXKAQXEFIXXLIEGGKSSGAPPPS (Aib2, αMeF(2F)6, 4TAA10, αMeL13, Orn16, Aib20, D-Glu24, αMeY25, K17 and K31: K(AEEA2-(γ-Glu)-CO-(CH2)12-CO2H), C-terminal NH2) [Example 144]
3.47
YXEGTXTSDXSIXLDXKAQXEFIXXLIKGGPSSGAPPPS (Aib2, αMeF(2F)6, 4Pal10, αMeL13, Orn16, Aib20, D-Glu24, αMeY25, K17 and K28: K(AEEA2-(γ-Glu)-CO-(CH2)14-CH3), C-terminal NH2) [Example 23]
0.00722
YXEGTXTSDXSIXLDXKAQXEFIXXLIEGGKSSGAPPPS (Aib2, αMeF(2F)6, 4Pal10, αMeL13, Orn16, Aib20, D-Glu24, αMeY25, K17 and K31: K(AEEA-(γ-Glu)-CO-(CH2)10-CH3), C-terminal NH2) [Example 14]
0.0884
Y[Aib]EGT[αMePhe(2-F)]TSDK([AEEA-AEEA-γGlu-C14 diacid])SI[αMeL]LD[Orn]IAQ[Aib]E[αMeF]IK([AEEA-AEEA-γGlu-C14 diacid])[αMeY]LIEGGPSSGAPPPS-NH2 [Example 110]
1.43

Query string: I have this binder here, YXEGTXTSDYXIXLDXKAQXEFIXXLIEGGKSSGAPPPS (Aib2, αMeF(2F)6, αMeS11, αMeL13, Orn16, Aib20, D-Glu24, αMeY25, K17 and K31: K(AEEA2-(γ-Glu)-CO-(CH2)12-CO2H), C-terminal NH2) [Example 49] , and I need its recorded EC50, cAMP.
Result string: 0.398

Query string: I have this binder here, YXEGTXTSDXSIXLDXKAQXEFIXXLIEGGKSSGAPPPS (Aib2, αMeF6, 4Pal10, αMeF13, Orn16, Aib20, D-Glu24, αMeY25, K17 and K31: K(AEEA2-(γ-Glu)-CO-(CH2)12-CO2H), C-terminal NH2) [Example 46] , and I need its recorded EC50, cAMP.
Result string: 3.29
